Reference source for all entries: ChEMBL document CHEMBL4422675

Experiment: Oral bioavailability in rat at 1 mg/kg
Type: ADME, organism-based
Conditions: in vivo

compound: CC(C)(C)C(=O)C1=C(O)C(=O)N(c2ccc(-c3ccsc3)cc2)C1c1ccccc1OCC(=O)O (stereo not drawn)
bioavailability, %: 5.2
--
compound: CC(C)(C)C(=O)C1=C(O)C(=O)N(c2ccc(-c3ccsc3)cc2)C1c1ccccc1OCCO (stereo not drawn)
bioavailability, %: 39.5
--
compound: O=C(O)c1ccc(C(=O)C2=C(O)C(=O)N(c3ccc(-c4ccon4)cc3)C2C2CCCCC2)cc1 (stereo not drawn)
bioavailability, %: 3.7
--
compound: CCC(CC)C1C(C(=O)c2ccc(OC)cc2)=C(O)C(=O)N1c1ccc(-c2ccon2)cc1 (stereo not drawn)
bioavailability, %: 18.9
--
compound: CN(C)CCOc1ccccc1C1C(C(=O)C(C)(C)C)=C(O)C(=O)N1c1ccc(-c2ccsc2)cc1 (stereo not drawn)
bioavailability, %: 15.5
--
compound: O=C(C1=C(O)C(=O)N(c2ccc(-c3ccon3)cc2)C1C1CCCCC1)c1ccc(CO)cc1 (stereo not drawn)
bioavailability, %: 6.7
--
compound: CC(C)C(=O)C1=C(O)C(=O)N(c2ccc(-c3ccsc3)cc2)C1c1ccccc1OCCO (stereo not drawn)
bioavailability, %: 40.8
--
compound: CC(C)(C)C(=O)C1=C(O)C(=O)N(c2ccc(-c3ccon3)cc2)C1c1ccccc1OCCO (stereo not drawn)
bioavailability, %: 49.9

* * *

Assay: Half life in rat at 0.5 mg/kg, iv or 1 mg/kg, po
Format: ADME, organism-based
Conditions: in vivo
Item-by-item account of half-life

compound: COc1ccccc1C1C(C(=O)C(C)C)=C(O)C(=O)N1c1ccc(-c2ccsc2)cc1 (stereo not drawn)
units_label: h
half-life: 6.1
--
compound: CNC(=O)c1ccc(C(=O)C2=C(O)C(=O)N(c3ccc(-c4ccon4)cc3)C2C2CCCCC2)cc1 (stereo not drawn)
units_label: h
half-life: 0.7
--
compound: CC(C)C(=O)C1=C(O)C(=O)N(c2ccc(-c3ccsc3)cc2)C1c1ccccc1OCC[S+](C)[O-] (stereo not drawn)
units_label: h
half-life: 1.1
--
compound: CC(C)(C)C(=O)C1=C(O)C(=O)N(c2ccc(-c3ccon3)cc2)C1c1ccccc1OCCO (stereo not drawn)
units_label: h
half-life: 2.1
--
compound: C[S+]([O-])CCOc1ccccc1C1C(C(=O)C(C)(C)C)=C(O)C(=O)N1c1ccc(-c2ccsc2)cc1 (stereo not drawn)
units_label: h
half-life: 1.4
--
compound: CCC(CC)C1C(C(=O)c2ccc(OC)cc2)=C(O)C(=O)N1c1ccc(-c2ccon2)cc1 (stereo not drawn)
units_label: h
half-life: 4.2
--
compound: COc1ccccc1C1C(C(=O)C(C)(C)C)=C(O)C(=O)N1c1ccc(-c2ccon2)cc1 (stereo not drawn)
units_label: h
half-life: 2.6
--
compound: O=C(O)c1ccc(C(=O)C2=C(O)C(=O)N(c3ccc(-c4ccon4)cc3)C2C2CCCCC2)cc1 (stereo not drawn)
units_label: h
half-life: 1.9

* * *

Assay: Half life in rat at 0.5 mg/kg, iv or 1 mg/kg, po
Assay type: ADME, organism-based
Settings: in vivo
Lab note: compare half-life with 1 h, writing Fulfilled if less and Not fulfilled if equal or more.

compound: CN(C)CCOc1ccccc1C1C(C(=O)C(C)(C)C)=C(O)C(=O)N1c1ccc(-c2ccsc2)cc1 (centres undefined)
discrete_label: Not fulfilled

compound: O=C(C1=C(O)C(=O)N(c2ccc(-c3ccon3)cc2)C1C1CCCCC1)c1ccc(CO)cc1 (centres undefined)
discrete_label: Not fulfilled

compound: COc1ccc(C(=O)C2=C(O)C(=O)N(c3ccc(-c4ccon4)cc3)C2c2ccccc2OCCO)cc1 (centres undefined)
discrete_label: Fulfilled

compound: CC(C)(C)C(=O)C1=C(O)C(=O)N(c2ccc(-c3ccsc3)cc2)C1c1ccccc1OCCO (centres undefined)
discrete_label: Not fulfilled

compound: COc1ccc(C(=O)C2=C(O)C(=O)N(c3ccc(-c4ccon4)cc3)C2c2ccccc2OC)cc1 (centres undefined)
discrete_label: Fulfilled

compound: CC(C)(C)C(=O)C1=C(O)C(=O)N(c2ccc(-c3cccs3)cc2)C1c1ccccc1OCCO (centres undefined)
discrete_label: Not fulfilled

compound: CC(C)(C)C(=O)C1=C(O)C(=O)N(c2ccc(-c3ccsc3)cc2)C1c1ccccc1OCC(=O)O (centres undefined)
discrete_label: Not fulfilled

compound: COc1ccc(C(=O)C2=C(O)C(=O)N(c3ccc(-c4ccon4)cc3)C2C2CCCCC2)cn1 (centres undefined)
discrete_label: Not fulfilled

* * *

Test: Oral bioavailability in rat at 1 mg/kg
Type: ADME, organism-based
Details: in vivo
# key: entry, value: bioavailability
attribute_measured: bioavailability (%)

compound: CC(C)(C)C(=O)C1=C(O)C(=O)N(c2ccc(-c3cccs3)cc2)C1c1ccccc1OCCO (centres undefined)
attribute_measured: bioavailability
val: 65.2
--
compound: COc1ccc(C(=O)C2=C(O)C(=O)N(c3ccc(-c4ccon4)cc3)C2C2CCCCC2)cn1 (centres undefined)
attribute_measured: bioavailability
val: 28.1
--
compound: COc1ccccc1C1C(C(=O)C(C)(C)C)=C(O)C(=O)N1c1ccc(-c2ccon2)cc1 (centres undefined)
attribute_measured: bioavailability
val: 77.9
--
compound: COc1ccc(C(=O)C2=C(O)C(=O)N(c3ccc(-c4ccon4)cc3)C2c2ccccc2OCCO)cc1 (centres undefined)
attribute_measured: bioavailability
val: 9
--
compound: CNC(=O)c1ccc(C(=O)C2=C(O)C(=O)N(c3ccc(-c4ccon4)cc3)C2C2CCCCC2)cc1 (centres undefined)
attribute_measured: bioavailability
val: 1.6
--
compound: COc1ccccc1C1C(C(=O)C(C)C)=C(O)C(=O)N1c1ccc(-c2ccsc2)cc1 (centres undefined)
attribute_measured: bioavailability
val: 20
--
compound: C[S+]([O-])CCOc1ccccc1C1C(C(=O)C(C)(C)C)=C(O)C(=O)N1c1ccc(-c2ccsc2)cc1 (centres undefined)
attribute_measured: bioavailability
val: 23.2
--
compound: CC(C)C(=O)C1=C(O)C(=O)N(c2ccc(-c3ccsc3)cc2)C1c1ccccc1OCC[S+](C)[O-] (centres undefined)
attribute_measured: bioavailability
val: 0.7
--
compound: COc1ccc(C(=O)C2=C(O)C(=O)N(c3ccc(-c4ccon4)cc3)C2c2ccccc2OC)cc1 (centres undefined)
attribute_measured: bioavailability
val: 19.9

* * *

Each entry below lists one item and its recorded clearance value.
Assay: in vivo
Settings: rat, iv, 0.5 mg/kg

compound: COc1ccccc1C1C(C(=O)C(C)(C)C)=C(O)C(=O)N1c1ccc(-c2ccon2)cc1 (configuration not stated)
clearance, mL/min/kg: 1.3
--
compound: COc1ccc(C(=O)C2=C(O)C(=O)N(c3ccc(-c4ccon4)cc3)C2C2CCCCC2)cn1 (configuration not stated)
clearance, mL/min/kg: 4.6
--
compound: CC(C)(C)C(=O)C1=C(O)C(=O)N(c2ccc(-c3cccs3)cc2)C1c1ccccc1OCCO (configuration not stated)
clearance, mL/min/kg: 1.3
--
compound: CC(C)(C)C(=O)C1=C(O)C(=O)N(c2ccc(-c3ccon3)cc2)C1c1ccccc1OCCO (configuration not stated)
clearance, mL/min/kg: 2.9
--
compound: CN(C)CCOc1ccccc1C1C(C(=O)C(C)(C)C)=C(O)C(=O)N1c1ccc(-c2ccsc2)cc1 (configuration not stated)
clearance, mL/min/kg: 7.3
--
compound: CCC(CC)C1C(C(=O)c2ccc(OC)cc2)=C(O)C(=O)N1c1ccc(-c2ccon2)cc1 (configuration not stated)
clearance, mL/min/kg: 5.1
--
compound: COc1ccccc1C1C(C(=O)C(C)C)=C(O)C(=O)N1c1ccc(-c2ccsc2)cc1 (configuration not stated)
clearance, mL/min/kg: 0.3

* * *

Experiment: in vivo
Details: rat, iv, 0.5 mg/kg
# clearance values compiled below

compound: COc1ccc(C(=O)C2=C(O)C(=O)N(c3ccc(-c4ccon4)cc3)C2c2ccccc2OC)cc1 (centres undefined)
clearance, mL/min/kg: 8.8
//
compound: C[S+]([O-])CCOc1ccccc1C1C(C(=O)C(C)(C)C)=C(O)C(=O)N1c1ccc(-c2ccsc2)cc1 (centres undefined)
clearance, mL/min/kg: 13.7
//
compound: O=C(C1=C(O)C(=O)N(c2ccc(-c3ccon3)cc2)C1C1CCCCC1)c1ccc(CO)cc1 (centres undefined)
clearance, mL/min/kg: 3.8
//
compound: CC(C)C(=O)C1=C(O)C(=O)N(c2ccc(-c3ccsc3)cc2)C1c1ccccc1OCC[S+](C)[O-] (centres undefined)
clearance, mL/min/kg: 23.2

* * *

Test: Oral bioavailability in rat at 3 mg/kg
Format: ADME, organism-based
Conditions: in vivo

molecule_smiles: COc1ccccc1[C@@H]1C(C(=O)C(C)C)=C([O-])C(=O)N1c1ccc(-c2ccsc2)cc1.[Na+]
bioavailability: 37.4%

* * *

Experiment: Half life in rat at 1 mg/kg, iv
Type: ADME, organism-based
Settings: in vivo
attribute_measured: half-life (h)

molecule_smiles: COc1ccccc1[C@@H]1C(C(=O)C(C)C)=C([O-])C(=O)N1c1ccc(-c2ccsc2)cc1.[Na+]
attribute_measured: half-life
val: 3.2
